Let's look at some binders and their measured interaction score.
MEASURED_ON: T1, 4H432-AA
T1 chain: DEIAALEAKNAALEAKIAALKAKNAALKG
ASSAY_EXPLANATION: two-hybrid library CCmax;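 also: natural log of median RNA to DNA barcode read ratio; higher means stronger binding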
SETTINGS: mean of both orientations
Enter the number alone.

Consider the following illustrative entries.
| BINDER | READOUT_VALUE |
| --- | --- |
| DKNAALEAKIAALKAKNAALKAEIAALEG [4H3449-AA] | 0.499 |
| DENAALKAEIAALEAKNAALKAEIAALEG [4H1593-AA] | -0.391 |
| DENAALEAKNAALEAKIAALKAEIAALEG [4H1449-AA] | -1.57 |
| DENAALEAENAALKAKIAALKAKIAALKG [4H1262-AA] | -1.48 |

Request the reported interaction score associated with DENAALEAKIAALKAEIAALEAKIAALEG [4H1349-AA] -1.21

Request the reported interaction score associated with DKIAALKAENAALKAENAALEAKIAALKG [4H2774-AA] -1.57

Request the reported interaction score associated with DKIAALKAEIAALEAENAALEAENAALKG [4H2580-AA] -1.04
